# ASSAY OVERVIEW: yeast display, Sf9 membrane polyspecificity reagent, FACS + sequencing; frameworks hold sequencing errors
PROPERTY: polyreactivity (PSR sort gate)

{"columns": ["CHAIN SEQUENCE", "PROPERTY", "REPORTED"],
 "data": [
  ["QVQLVESGGGLVQAGGSLRLSCAASGSTFLNYAMGWYRQAPGKERELVAAISGRGGRTYYADSVKGRFTISRDNAKNTVYLQMNSLTPEDTAVYYCAARKWVSYTSYDYWGQGTQVTVSS", "polyreactivity (PSR sort gate)", "high polyreactivity"],
  ["QVQLVESGGGLVQAGGSLRLSCAASGLTFDYYDMGWYRQAPGKERELVASITWRGSSTYYADSVKGRFTISRDNAKNTVYLQMYSLKPEDTAVYYCAADPQSTIRDYWGQGTQVTVSS", "polyreactivity (PSR sort gate)", "high polyreactivity"]
]}

###

# ASSAY OVERVIEW: yeast display, Sf9 membrane polyspecificity reagent, FACS + sequencing; frameworks hold sequencing errors

{"columns": ["CHAIN SEQUENCE", "polyreactivity (PSR sort gate)"],
 "data": [
  ["VQLVESGGGLVQAGGSLRLSCAASGFTFRWYAMGWYRQAPGKERELVAAISRGGNTNYADSVKGRFTISRDNANNTVYLQMNSLNPDDTAVYYCAAGHGSLRYNYWGQGSQVTVSS", "high polyreactivity"],
  ["QVQLLESGGGLVQAGGSLRLSCAASGLIFGENAMGWYRQAPGKERELVAAISRRAGITYYADSVKGRFTISRDNAKNTVYLQMNSLKPEDTAVYYCAAQYYLYRSRFDYWGQGTQVTVSS", "high polyreactivity"],
  ["QVQLVESGGGLVQAGGSLRLSCAASGYTFDKYVMGWYRQAPGKERELVAAISRSGGRTYYADSVKGRFTISRDNAKNTVYLQMNSLKPEDTAVYYCNALWFYNGLSYEYWGQGTQVTVSS", "high polyreactivity"],
  ["QVQLVESGGGLVQAGGSLRLSCAASGYTLTINVMGWYRQAPGKERELVAAITSSGASTNYADSVKGRFTISRDNAKNTVYLQMNSLKPEDTAVYYCNVVNEHQSDFVVPFDYNHWGQGTQVTVSS", "low polyreactivity"],
  ["QVQLVESGGGLVQEGGILRLSCAASGRTFTWYAMEWYRQAPGKERELVAAISFSGGSTYYADSVKGRFTISRDNAKNTVYLQMNSLKPEDSAVYYCARASGDAWEGPRLDYWGQGTQVTVSS", "low polyreactivity"],
  ["QVQLVESGGGLVQAGGSLRLSCAASGYIFWENAMGWYRPAPGKERELVAAITVSGGGTYYADSVKGRFTISRDNAKNTVYLQRNSLKPEDTAVYYCAADEDNPWLWFYYWGQGTQVTVSS", "low polyreactivity"],
  ["QVQLVESGGGLVQAGGSLRLSCAASGRIFSWNAMGWYRQAPGKERELVAAITIGGGTYYADSVKGRFTISRDNAKNTVYLQMNSLKPEDTAVYYCNAYRRKLWYPTGMYWGQGTQVTVSS", "high polyreactivity"],
  ["QVQLVESGGGLVQAGGSLRLSCAASGITLQYYAMGWYRQAPGKERQLVAGITSGGGTYYADSVKGRFTISRDNAKNTVYLQMNSLKPEDTAVYYCAARPWRSRYYGGLGRRFDYWGQGTQETVSS", "high polyreactivity"],
  ["QVQLVESGGGLVQAGGSLRLSCAASGFIFWPYAMGWYRQAPGKESELVAAITTGGSTNYADSVKGRFTISRDNAKNTVYLQMNSLKPEDTAVYYCAKGYYFGYYEFDYWGQGTQVTVSS", "high polyreactivity"],
  ["QVQLVESGGGLVQAGGSLRLSCAAYGGIFPAYAMGWYRQAPGKERELVAAISSSGRTYYADSVKGRFTISRDNAKNTVYLQMNSVKPEDTAVYYCAAYGGYRGWVFGSYGSWGQGTQVTVSS", "high polyreactivity"],
  ["QVQLVESGGGLVHAGGSLRLSCAASGSIFRGYAMGWYRQAPGKERELVAAISRDGGSTYYADSVKGRFSISRDNAKNTVYLQMNSLKPEETAVYYCAADYVAYATYGDGDYWGQGTQVTVSS", "high polyreactivity"],
  ["QVQLGESGGGLVQAGGSLRLICAASGRIFYRNAMGWYRQAPGKERELVAGISNRGGSTYYADSVKGRFTISRDNAKNTVYLQMNSLKPEDTAVYYCATVPFSPPSAGPEYDYWGQGTQVTVSS", "high polyreactivity"],
  ["QVQLVESGGGLVQAGGSLRLSCAASGSIFSVYAMGWYRQAPGKERELVAVIWRGGSTNYADSVKGRFTISRDNAKNTVYLQMNSLKPEVTALYYCNARTFYRKFWYQFVSSYGYDYWGQGTQVTVSS", "low polyreactivity"],
  ["QVQLVESGGGLVQAGGSLRLSCAASGSIFRTNTMGWYRQAPGKEREFVAAITAIGDSTYYADSVKGRFTISRDNAKNTVYLQMNSLKPEDTAVYYCAAEKVSWGYHFYSSYDYWGQGTQVTVSS", "low polyreactivity"],
  ["QVQLVESGGGLVQAGGSLRLSCAASGRTFSRNAMGWYRQAPGKERELVASISRSGASTYYADSVKGRFTISRDNAKNTVYLQMNSLKPEDTAVYYCNADVYSTYYNYNYWVQGTQVTVSS", "high polyreactivity"],
  ["QVQLVESGGGLVQAGGSLRLSCAASGRVRYAIGWYRQAPGKESELVASITRRAGNTYYADSVKGRFTISRDNAKNTVYLQMNSLKPEDTAVYYCAAADVGAYRGNYWGQGTLVTVSS", "high polyreactivity"],
  ["QVQLVESGGGLVQAGGSLRLSCAASGITFGLYVMGWYRQAPRKERELVAANSSGGSTNYADSVKGRFTISRDNAKNPVYLQMNSLKPEDTAVYYCNADRLRPEYDYWGQGTQVTVSS", "low polyreactivity"],
  ["QVQLVESGGGLVQAGGSLRLSCAASGSISVDNTMGWYRQAPGKERELVAAISRSGGTTYYADSVKGRFTISRDNAKNTVYLQMNSLKPEDTAVYYCAKDTLRYRWRSYDYYPEMNYWGQGTQVTVSS", "low polyreactivity"],
  ["QVQLVESGGGLVHAGGSLRLSCAAWSIFYLNAMGWYRQAPGKERELVAAISSAGSTYYADSVKGRFTISRDNAKNTVYLQMNSLKPEDTAVYYCAAYWYDSPGVTEIWYDYWGQGTQVTVSS", "low polyreactivity"],
  ["QFQLVESGGRLVQAGGSLRLSCAASGFTFNRYAMGSYRQAPGKGREFVAAITRRGGSTYYADSVKGRFTISRDNAKNTVYLQMNSLKPEDTAVYYCNVKPSARGSPLYDYWGQGTQVTVSS", "high polyreactivity"],
  ["QVQLVESGGGLVQAGGSLRLSCAASGLIFRYYAMGWYRQAPGKERELVAAISSSGTRTYYADSVKGRFTISRDNAKNTVYLQMNSLKPEDTSVYYCATENQNPTGGYWGQGTQVTVSS", "high polyreactivity"]
]}

###

# ASSAY OVERVIEW: yeast display, Sf9 membrane polyspecificity reagent, FACS + sequencing; frameworks hold sequencing errors
PROPERTY: polyreactivity (PSR sort gate)

{"columns": ["CHAIN SEQUENCE", "REPORTED"],
 "data": [
  ["QVQLVESRGAIVQAGASLRLSSAASGFTFWDYAMGCYRQAPGKERELVAAISSRGTRTYYADSVKGRFTISRDNAKNTVYLQMNSLKPEDTAVYYCATASPDPDYIHNYWGQGTQVTVSS", "high polyreactivity"],
  ["QDQLEESGGGLVQAGGSLRLSCAASGSTFLVYAMGWYRQAPGKEREFVAAISWSGGSTFYADSVKGRFTISRDNAKNTVYLQMNSLKPEDTAVYYCAARQAGYSGRKLYYWGQGTQVTVSS", "low polyreactivity"],
  ["QVQLVESGGGLVQAGGSLLLSCAASGFTFWNYAMGWYRQAPGKEMEFVASITWSGGSTYYADSVKGRFTISSDNAKNTVYLQMNSLKPEDTAVYYCAVGGSGYGLYGVGYALDYWGQGTQVTVSS", "high polyreactivity"],
  ["QVQLVESGGGLVQAGGSLRLSCAASGSTFRINAMGWYRQAPGNERELVAAMSYNGGGTYADSVKGRFTISRDNAKNTVYLQMNSLKPEDTAVSYCAADTYYGQAYTAYTYRLYDYWGEGTQVTVSS", "low polyreactivity"],
  ["QVQLVESGGRLVQAGGSLRLSCAASGSIFYDNAMGWYRQAPGKERELVAVITVSGDSTYYADSVKGRFTISRDNAKNTVYLQMNSLKPEDTAVYYCNTDAISGSHFWRYITFGYLDDYWGQGTQVTVSS", "low polyreactivity"],
  ["QDQLVESGGGLVQAGGSLRLSCAASGYIFITKAMGLNRQAPGKERELVAAINSGGSTYYADSVKGRFTISRDNAKNTVYLQMKSLKPEDTAVYYCAAEYWVYYWHYYDYWGQGTQVTVSS", "high polyreactivity"],
  ["QVQLVESGGGIVQAGGSLRFSCAASGSTFLYYAMGWYRLAPGKETEFVADISFSGGSTYYADSVKGRFTSSRDNAKNTVYLQMNSLKPEDTGVYNCAARKKEYKAGNYWGQGTQVNVSS", "low polyreactivity"],
  ["QVQLVESGGGLVQAGGSLRLSCAASGRTFNDYTMGWYRQAPGKERELVAAISSSGVRTYYADSVKGRFTISRDNAKNTVYLQMNSLKPEDTAVYYAKRAGYDRRWTYDYWGQGTQVTVSS", "high polyreactivity"],
  ["QVQLVESGGGLVQAGGSLRLSCAASGSTRYWYAMGWYRQAPGKEREFFAGISIGGRTNYADSVKGRFTISRDNAKNTVYLQMNSLKPEDTAVYYCNAENTYVGSRYRPYNYWGQGTLVTVSS", "low polyreactivity"],
  ["QVQLVESGGGLVQAGGSLRLSCAASGTIFVPYAMGWYRQAPGKERELVAVITSGGSTYYADSVKGRFTISRDNAKNTVYLQMNSLKPEDTAVYYCNADLYYVWSTLSQFDYWGQGTQVTVSS", "low polyreactivity"],
  ["QVQRVESGGGLVQAGGSLRVSCAASGSTFYVYGMGWYRQAPGKERELVAAISWSGGDTYYADSVKGRCTISRDNAKNTVYLQMNRLKPEDTAVYYCAAVYNYPVVGEYDYWGQGTQVTVSA", "high polyreactivity"]
]}
